# SYSTEM TESTED: CETP (Homo sapiens)
# Sequence (P11597 18-493): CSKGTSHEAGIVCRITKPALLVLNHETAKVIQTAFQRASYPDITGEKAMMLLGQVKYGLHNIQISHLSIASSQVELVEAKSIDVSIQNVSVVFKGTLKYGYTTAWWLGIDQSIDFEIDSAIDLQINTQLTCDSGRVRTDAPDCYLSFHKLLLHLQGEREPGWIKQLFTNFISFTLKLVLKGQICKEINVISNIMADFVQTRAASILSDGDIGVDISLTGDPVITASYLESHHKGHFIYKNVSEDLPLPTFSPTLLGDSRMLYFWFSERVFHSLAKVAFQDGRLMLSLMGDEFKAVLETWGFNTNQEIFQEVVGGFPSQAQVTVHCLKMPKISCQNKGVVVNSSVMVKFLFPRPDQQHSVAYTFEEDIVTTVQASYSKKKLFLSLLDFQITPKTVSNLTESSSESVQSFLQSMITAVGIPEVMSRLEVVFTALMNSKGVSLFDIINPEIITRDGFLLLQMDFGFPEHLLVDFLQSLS
# METHOD: Inhibitory activity against CETP in human plasma (Roar CETP activity kit, fluorescence)
# STATED CONDITIONS: plasma from healthy men diluted 1:10 in assay buffer, 37° C., 3 hrs, fluorescence 465/535 nm; read-out: IC50, Inhibition of CETP Activity in Human Plasma
EXPERIMENTAL ENDPOINT: IC50 (nM)

>>> assay_value("CCN(c1ncc(C(F)(F)F)cc1CN1C(=O)O[C@H](c2cc(C(F)(F)F)cc(C(F)(F)F)c2)[C@@H]1C)C1CCN(CC(=O)OC)CC1 [Example 38]")
19.3
>>> assay_value("CCC1CCCN1c1cnc(N(CC)C2CCCCC2)c(CN2C(=O)O[C@H](c3cc(C(F)(F)F)cc(C(F)(F)F)c3)[C@@H]2C)c1 (stereo partly drawn) [Example 90]")
11.8
>>> assay_value("CCN(c1ncc(N2CCC(F)(F)C2)cc1CN1C(=O)O[C@H](c2cc(C(F)(F)F)cc(C(F)(F)F)c2)[C@@H]1C)C1CCCCC1 [Example 91]")
26.7

A. CCN(c1ncc(C(F)(F)F)cc1CN1C(=O)O[C@H](c2cc(C(F)(F)F)cc(C(F)(F)F)c2)[C@@H]1C)C1CCCOC1 (stereo partly drawn) [Example 15]
B. CCN(c1ncc(C(F)(F)F)cc1CN1C(=O)O[C@H](c2cc(C(F)(F)F)cc(C(F)(F)F)c2)[C@@H]1C)C1CCC(CC(=O)OC)CC1 (stereo partly drawn) [Example 24]
C. CCCN1CCC(N(CC)c2ncc(C(F)(F)F)cc2CN2C(=O)O[C@H](c3cc(C(F)(F)F)cc(C(F)(F)F)c3)[C@@H]2C)CC1 [Example 31]
Put these in order: smallest IC50 first, largest last. Write the labels, ordered according to the request.
A, C, B
(A: 10 nM, C: 108 nM, B: 185 nM)

====

# SYSTEM TESTED: UniProt P11597
# METHOD: Inhibitory activity against CETP in human plasma (Roar CETP activity kit, fluorescence)
# STATED CONDITIONS: plasma from healthy men diluted 1:10 in assay buffer, 37° C., 3 hrs, fluorescence 465/535 nm; read-out: IC50, Inhibition of CETP Activity in Human Plasma
# Method: A CETP activity kit (#RB-CETP) was purchased from Roar […], Inc. A donor and an acceptor (each, 4 ul), a 10× assay buffer (177 ul), and each of dilutions of test compounds in dimethylsulfoxide (DMSO, Sigma-Aldrich) (0.01 nM˜10000 nM) were added to each well of black round-bottom 96-well plates (Corning #3792). […] After removal of the sealing film, fluorescence was read on Spectra Max Gemini EM (Molecular devices) with an excitation wavelength of 465 nm and an emission wavelength of 535 nm. […]
EXPERIMENTAL ENDPOINT: IC50 (nM)

Sample records with IC50:
>>> assay_value("CCN(C[C@H]1CC[C@H](CC(=O)O)CC1)c1ncc(C2CCC2)nc1CN1C(=O)OC(c2cc(C(F)(F)F)cc(C(F)(F)F)c2)[C@@H]1C (stereo partly shown) [Example 122]")
4.68
>>> assay_value("CCN(c1ncc(F)cc1CN1C(=O)O[C@H](c2cc(C(F)(F)F)cc(C(F)(F)F)c2)[C@@H]1C)C1CCOCC1 [Example 16]")
75
>>> assay_value("CCN(c1ncc(C(F)(F)F)cc1CN1C(=O)O[C@H](c2cc(C(F)(F)F)cc(C(F)(F)F)c2)[C@@H]1C)C1CCC(=O)CC1 [Example 22]")
10

1. CCN(C[C@H]1CC[C@H](CCO)CC1)c1ncc(-c2c(C)noc2C)nc1CN1C(=O)OC(c2cc(C(F)(F)F)cc(C(F)(F)F)c2)[C@@H]1C (stereo partly shown) [Example 130]
2. CCN(CC1CCC(CC(=O)O)CC1)c1ncc(-c2ccsc2)nc1CN1C(=O)OC(c2cc(C(F)(F)F)cc(C(F)(F)F)c2)C1C (stereo not shown) [Example 105]
3. CCN(CC1CCCC1)c1ncc(-c2c(C)noc2C)nc1CN1C(=O)O[C@H](c2cc(C(F)(F)F)cc(C(F)(F)F)c2)[C@@H]1C [Example 101]
4. CCN(c1ncc(-c2ccsc2)cc1CN1C(=O)O[C@H](c2cc(C(F)(F)F)cc(C(F)(F)F)c2)[C@@H]1C)C1CCCCC1 [Example 77]
# desc sort on IC50 across 4 compounds Write the labels, ordered according to the request.
1, 3, 4, 2
(1: 8.86 nM, 3: 3.45 nM, 4: 2.1 nM, 2: 0.8 nM)
